Sourced from patent US8133884B2

test system: HCV replicon; assay: HCV replicon assay (FRET or luciferase reporter); format: cell-based; conditions: Hepatitis C virus, one of the methods described, class symbol
pEC50: −log10 of the molar value.
endpoint: pEC50

[in] Field request: pEC50 | item: `CCN1C[C@@H]2C[C@H]1CN2C(=O)c1c(C)nn(C2CCC2)c1C1=Cc2cc(OC)ccc2-c2c(C3CCCCC3)c3ccc(C(=O)NS(=O)(=O)C(C)C)cc3n2C1`
[out] 6.30 to 8.77

[in] Field request: pEC50 | item: CCN1CC2CC1CN2C(=O)c1c(C2=Cc3cc(OC)ccc3-c3c(C4CCCCC4)c4ccc(C(=O)NS(=O)(=O)C(C)C)cc4n3C2)ncn1C1CCC1 (stereo not drawn)
[out] 6.30 to 8.77

[in] Field request: pEC50 | item: `COc1ccc2c(c1)C=C(c1c(C(=O)N3C4CCCC3COC4)c(C)nn1C1CCC1)Cn1c-2c(C2CCCCC2)c2ccc(C(=O)NS(=O)(=O)C(C)C)cc21`
[out] 6.30 to 8.77
